Test: DRUGMATRIX: beta-Lactamase enzyme inhibition (substrate: Nitrocefin)
Set-up: species or system Bacillus cereus
Conditions: Not Active = under 50% inhibition at 10 µM

{"columns": ["Molecule", "IC50"],
 "data": [
  ["N[C@@H](Cc1ccc(N(CCCl)CCCl)cc1)C(=O)O", "Not Active"],
  ["NC(=O)N1c2ccccc2CCc2ccccc21", "Not Active"],
  ["N[C@@H]1[C@H]2CN(c3nc4c(cc3F)c(=O)c(C(=O)O)cn4-c3ccc(F)cc3F)C[C@@H]12", "Not Active"],
  ["COc1nc(C)nc(Cl)c1NC1=NCCN1", "Not Active"],
  ["O=c1ncn2nc(Sc3ccc(F)cc3F)ccc2c1-c1c(Cl)cccc1Cl", "Not Active"],
  ["COc1cc2nc(N3CCN(C(=O)C4COc5ccccc5O4)CC3)nc(N)c2cc1OC (stereo unspecified)", "Not Active"],
  ["c1ccc2c(c1)c1cccc3ccc4cccc2c4c31 [BENZO[E]PYRENE]", "Not Active"],
  ["Sc1ncnc2nc[nH]c12 [MERCAPTOPURINE ANHYDROUS]", "Not Active"],
  ["CNCCc1ccccn1", "Not Active"],
  ["Cc1c(O)c(=O)ccn1C", "Not Active"],
  ["Clc1cccc(Cl)c1NC1=NCCN1", "Not Active"]
]}

----------
Molecular target: UniProtKB P21397
Sequence (P21397 whole entry): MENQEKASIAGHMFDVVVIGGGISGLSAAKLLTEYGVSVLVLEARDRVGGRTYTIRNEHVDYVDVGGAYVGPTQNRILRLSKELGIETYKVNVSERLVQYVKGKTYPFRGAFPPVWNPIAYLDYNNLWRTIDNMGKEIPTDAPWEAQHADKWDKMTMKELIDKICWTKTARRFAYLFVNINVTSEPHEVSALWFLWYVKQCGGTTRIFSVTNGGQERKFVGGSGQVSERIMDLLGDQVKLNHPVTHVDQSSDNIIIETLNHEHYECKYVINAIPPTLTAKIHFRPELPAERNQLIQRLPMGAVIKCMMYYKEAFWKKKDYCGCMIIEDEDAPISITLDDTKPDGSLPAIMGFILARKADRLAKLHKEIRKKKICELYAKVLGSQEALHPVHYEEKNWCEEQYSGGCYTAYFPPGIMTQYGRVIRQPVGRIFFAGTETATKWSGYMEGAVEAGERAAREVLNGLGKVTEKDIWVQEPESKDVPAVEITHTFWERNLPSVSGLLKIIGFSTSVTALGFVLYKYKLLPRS
Test: DRUGMATRIX: Monoamine Oxidase MAO-A enzyme inhibition (substrate: Kynuramine)
Set-up: species or system BTI-TN-5B1-4
Conditions: bti-tn-5b1-4; Not Active = under 50% inhibition at 10 µM
*1 amine or outer side, *2 acyl side, *3 side chain or, on linkers, in order; H or OH if unused. Where a SMILES comes first, the peptide text is derived from it. Bridges are numbered along the chain shown (N, C = ends). Roman numbers before positions name the chains, in order. [ ]: non-standard residue; d: D form. Actinocin(1to9) = Cc1c2oc3c(C)ccc(C(=O)[*:2])c3nc-2c(C(=O)[*:1])c(N)c1=O; NMeV = CN[C@H](C(=O)O)C(C)C; Sar = CNCC(=O)O

{"columns": ["Compound", "IC50"],
 "data": [
  ["Cc1c2oc3c(C)ccc(C(=O)N[C@@H]4C(=O)N[C@H](C(C)C)C(=O)N5CCC[C@H]5C(=O)N(C)CC(=O)N(C)[C@@H](C(C)C)C(=O)O[C@@H]4C)c3nc-2c(C(=O)N[C@@H]2C(=O)N[C@H](C(C)C)C(=O)N3CCC[C@H]3C(=O)N(C)CC(=O)N(C)[C@@H](C(C)C)C(=O)O[C@@H]2C)c(N)c1=O [DACTINOMYCIN] (I: T[dV]P[Sar][NMeV] / II: T[dV]P[Sar][NMeV]; ester I:1-I:C, II:1-II:C; linker I:N-II:N via Actinocin(1to9))", "Not Active"],
  ["Cc1noc(NS(=O)(=O)c2ccc(N)cc2)c1C", "Not Active"],
  ["C=C(C)C1(O)OC(=O)C=C1OC (centres undefined)", "Not Active"],
  ["NS(=O)(=O)c1cc2c(cc1Cl)NC(C(Cl)Cl)NS2(=O)=O (centres undefined) [TRICHLORMETHIAZIDE]", "Not Active"],
  ["N[C@@H](Cc1cc(I)c(Oc2ccc(O)c(I)c2)c(I)c1)C(=O)O", "Not Active"],
  ["CSc1ccc(/C=C2/C(C)=C(CC(=O)O)c3cc(F)ccc32)cc1 [SULINDAC SULFIDE]", "Not Active"],
  ["N[C@@H](Cc1ccc(N(CCCl)CCCl)cc1)C(=O)O", "Not Active"],
  ["CC1CC(OC(=O)C(O)c2ccccc2)CC(C)(C)C1 (centres undefined) [CYCLANDELATE]", "Not Active"],
  ["O=c1oc2ccccc2c(O)c1Cc1c(O)c2ccccc2oc1=O", "Not Active"]
]}

----------
Biological target: UniProtKB P08912
Sequence (P08912 whole entry): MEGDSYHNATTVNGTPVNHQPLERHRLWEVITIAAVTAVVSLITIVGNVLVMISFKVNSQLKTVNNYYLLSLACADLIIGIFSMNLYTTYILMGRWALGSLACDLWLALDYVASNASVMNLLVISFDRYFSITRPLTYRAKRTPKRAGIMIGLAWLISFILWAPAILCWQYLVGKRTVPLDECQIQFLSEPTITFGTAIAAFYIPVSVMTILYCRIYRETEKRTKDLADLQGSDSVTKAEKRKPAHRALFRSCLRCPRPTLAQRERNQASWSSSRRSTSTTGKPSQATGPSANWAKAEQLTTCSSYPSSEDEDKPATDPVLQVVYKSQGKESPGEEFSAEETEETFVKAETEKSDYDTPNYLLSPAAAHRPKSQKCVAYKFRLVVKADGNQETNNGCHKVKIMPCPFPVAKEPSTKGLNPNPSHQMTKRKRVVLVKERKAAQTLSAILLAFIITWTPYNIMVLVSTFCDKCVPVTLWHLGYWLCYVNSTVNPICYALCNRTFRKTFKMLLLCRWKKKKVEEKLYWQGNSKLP
Format: cell membranes, CHO-K1, Membrane
Settings: cho-k1
*1 amine or outer side, *2 acyl side, *3 side chain or, on linkers, in order; H or OH if unused. Where a SMILES comes first, the peptide text is derived from it. Bridges are numbered along the chain shown (N, C = ends). Roman numbers before positions name the chains, in order. [ ]: non-standard residue; d: D form. Actinocin(1to9) = Cc1c2oc3c(C)ccc(C(=O)[*:2])c3nc-2c(C(=O)[*:1])c(N)c1=O; NMeV = CN[C@H](C(=O)O)C(C)C; Sar = CNCC(=O)O
Outcome measure: IC50

{"columns": ["Molecule", "Result"],
 "data": [
  ["NS(=O)(=O)c1cc2c(cc1Cl)NC(C(Cl)Cl)NS2(=O)=O (stereo not drawn) [TRICHLORMETHIAZIDE]", "Not Active"],
  ["CCC1(c2ccc(N)cc2)CCC(=O)NC1=O (stereo not drawn) [AMINOGLUTETHIMIDE]", "Not Active"],
  ["Cc1c2oc3c(C)ccc(C(=O)N[C@@H]4C(=O)N[C@H](C(C)C)C(=O)N5CCC[C@H]5C(=O)N(C)CC(=O)N(C)[C@@H](C(C)C)C(=O)O[C@@H]4C)c3nc-2c(C(=O)N[C@@H]2C(=O)N[C@H](C(C)C)C(=O)N3CCC[C@H]3C(=O)N(C)CC(=O)N(C)[C@@H](C(C)C)C(=O)O[C@@H]2C)c(N)c1=O [DACTINOMYCIN] (I: T[dV]P[Sar][NMeV] / II: T[dV]P[Sar][NMeV]; ester I:1-I:C, II:1-II:C; linker I:N-II:N via Actinocin(1to9))", "Not Active"]
]}

----------
Target: UniProt:P10635
Sequence (P10635 whole entry): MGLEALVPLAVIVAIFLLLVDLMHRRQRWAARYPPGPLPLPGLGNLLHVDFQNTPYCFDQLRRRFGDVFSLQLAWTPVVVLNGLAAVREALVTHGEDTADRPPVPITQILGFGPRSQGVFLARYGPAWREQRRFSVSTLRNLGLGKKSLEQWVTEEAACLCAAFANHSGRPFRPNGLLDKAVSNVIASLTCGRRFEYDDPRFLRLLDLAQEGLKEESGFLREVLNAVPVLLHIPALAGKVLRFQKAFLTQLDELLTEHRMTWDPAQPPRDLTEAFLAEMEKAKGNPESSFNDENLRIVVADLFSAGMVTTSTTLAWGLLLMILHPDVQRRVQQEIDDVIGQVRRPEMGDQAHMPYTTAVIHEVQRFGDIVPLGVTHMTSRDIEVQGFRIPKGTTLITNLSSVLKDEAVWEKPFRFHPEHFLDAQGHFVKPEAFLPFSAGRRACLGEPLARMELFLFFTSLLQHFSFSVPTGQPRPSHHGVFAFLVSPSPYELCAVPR
Details: bti-tn-5b1-4
*1 amine or outer side, *2 acyl side, *3 side chain or, on linkers, in order; H or OH if unused. Where a SMILES comes first, the peptide text is derived from it. Bridges are numbered along the chain shown (N, C = ends). Roman numbers before positions name the chains, in order. [ ]: non-standard residue; d: D form. Actinocin(1to9) = Cc1c2oc3c(C)ccc(C(=O)[*:2])c3nc-2c(C(=O)[*:1])c(N)c1=O; NMeV = CN[C@H](C(=O)O)C(C)C; Sar = CNCC(=O)O

{"columns": ["Molecule", "IC50"],
 "data": [
  ["CCC(C)n1ncn(-c2ccc(N3CCN(c4ccc(OCC5COC(Cn6cncn6)(c6ccc(Cl)cc6Cl)O5)cc4)CC3)cc2)c1=O (stereo unspecified) [ITRACONAZOLE]", "Not Active"],
  ["N[C@@H]1[C@H]2CN(c3nc4c(cc3F)c(=O)c(C(=O)O)cn4-c3ccc(F)cc3F)C[C@@H]12 [TROVAFLOXACIN]", "Not Active"],
  ["CC1(C)O[C@@H]2C[C@H]3[C@@H]4CCC5=CC(=O)C=C[C@]5(C)[C@@]4(F)[C@@H](O)C[C@]3(C)[C@]2(C(=O)CO)O1 [TRIAMCINOLONE ACETONIDE]", "Not Active"],
  ["OCCN(CCO)c1nc(N2CCCCC2)c2nc(N(CCO)CCO)nc(N3CCCCC3)c2n1 [DIPYRIDAMOLE]", "Not Active"],
  ["Cn1ccnc1S [METHIMAZOLE]", "Not Active"],
  ["CC(C)C(Br)C(=O)NC(N)=O (stereo unspecified) [BROMISOVALUM]", "Not Active"],
  ["CC(C)N1CCN(c2ccc(OCC3COC(Cn4cncn4)(c4ccc(Cl)cc4Cl)O3)cc2)CC1 (stereo unspecified) [TERCONAZOLE]", "Not Active"],
  ["COc1ccc(C[C@H]2NC[C@H](O)[C@H]2OC(C)=O)cc1 [ANISOMYCIN]", "Not Active"],
  ["NCCCCCC(=O)O [AMINOCAPROIC ACID]", "Not Active"],
  ["CCC1(c2ccc(N)cc2)CCC(=O)NC1=O (stereo unspecified) [AMINOGLUTETHIMIDE]", "Not Active"],
  ["Cc1c(C)c2c(c(C)c1O)CCC(C)(COc1ccc(CC3SC(=O)NC3=O)cc1)O2 (stereo unspecified) [TROGLITAZONE]", "Not Active"],
  ["CC[C@@]1(O)C[C@H](O[C@H]2C[C@H](N(C)C)[C@H](O[C@H]3C[C@H](O)[C@H](O[C@H]4CCC(=O)[C@H](C)O4)[C@H](C)O3)[C@H](C)O2)c2c(cc3c(c2O)C(=O)c2c(O)cccc2C3=O)[C@H]1C(=O)OC [ACLARUBICIN]", "Not Active"],
  ["c1ccc([C@H]2CN3CCSC3=N2)cc1 [LEVAMISOLE]", "Not Active"],
  ["NC1=NC(=O)C(c2ccccc2)O1 (stereo unspecified) [PEMOLINE]", "Not Active"],
  ["O=c1oc2ccccc2c(O)c1Cc1c(O)c2ccccc2oc1=O [DICUMAROL]", "Not Active"],
  ["Cc1c2oc3c(C)ccc(C(=O)N[C@@H]4C(=O)N[C@H](C(C)C)C(=O)N5CCC[C@H]5C(=O)N(C)CC(=O)N(C)[C@@H](C(C)C)C(=O)O[C@@H]4C)c3nc-2c(C(=O)N[C@@H]2C(=O)N[C@H](C(C)C)C(=O)N3CCC[C@H]3C(=O)N(C)CC(=O)N(C)[C@@H](C(C)C)C(=O)O[C@@H]2C)c(N)c1=O [DACTINOMYCIN] (I: T[dV]P[Sar][NMeV] / II: T[dV]P[Sar][NMeV]; ester I:1-I:C, II:1-II:C; linker I:N-II:N via Actinocin(1to9))", "Not Active"]
]}
